- Assay: Tmax in rat at 3 mg/kg, po
- Type: ADME, organism-based
- Parameters: dose 3 mg/kg, route oral
- Study Conditions: in vivo
Outcome Measure: Tmax (h)
Write it as a number; the unit h goes unstated.

**Q:** In one line, give reported Tmax of the entry O=C(Nc1sc2c(c1C(=O)N1CC(F)(F)C1)CCOC2)c1c(F)cccc1C(F)(F)F .
**A:** 1

---

- Measured On: Cannabinoid receptor 2 (Homo sapiens, UniProt P34972)
- Sequence (P34972 whole entry): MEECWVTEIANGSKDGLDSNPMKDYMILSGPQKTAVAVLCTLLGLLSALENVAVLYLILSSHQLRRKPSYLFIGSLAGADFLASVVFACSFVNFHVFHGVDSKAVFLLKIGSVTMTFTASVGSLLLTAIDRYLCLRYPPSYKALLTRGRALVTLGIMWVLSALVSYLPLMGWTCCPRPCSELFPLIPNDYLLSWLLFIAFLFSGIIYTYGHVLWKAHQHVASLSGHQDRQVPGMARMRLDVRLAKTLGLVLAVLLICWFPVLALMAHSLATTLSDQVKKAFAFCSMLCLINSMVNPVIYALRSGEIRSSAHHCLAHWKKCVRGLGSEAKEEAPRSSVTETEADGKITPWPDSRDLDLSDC
Outcome Measure: pKi
pKi here is simply -log10 of the concentration when that concentration is written in mol/L.

**Q:** Report value: pKi, system: Cannabinoid receptor 2 (Homo sapiens, UniProt P34972), compound: COC1CN(C(=O)c2c(NC(=O)c3ccccc3C(F)(F)F)sc3c2CCOC3)C1
**A:** 6.05

**Q:** Report value: pKi, system: Cannabinoid receptor 2 (Homo sapiens, UniProt P34972), compound: O=C(Nc1sc2c(c1C(=O)N1CCCCC1)CCOC2)c1ccccc1OC(F)(F)F
**A:** 6.46

**Q:** Report value: pKi, system: Cannabinoid receptor 2 (Homo sapiens, UniProt P34972), compound: COCCNC(=O)c1c(NC(=O)c2ccccc2C(F)(F)F)sc2c1CCOC2
**A:** 6.00
